# Tested system: T1, human EGFR (epidermal growth factor receptor) (human, UniProt P00533 25-1210)
# T1 construct: Always presented on cells in the entries below; also called huEGFR; ErbB1
# Measurement notes: flow cytometry on MDA-MB468 or A431 cells; EC50 of the curve taken as apparent Kd
Below, each of the binders is paired with its reported Kd value.
Number in nM, nothing else.

Binder	Kd / nM
humanized ML66 (huML66) antibody (antibody, human IgG1, kappa, V domains shown) VH: QVQLQESGPGLVKPSETLSLTCTVSGLSLASNSVSWIRQPPGKGLEWMGVIWNHGGTDYNPSIKSRLSISRDTSKSQVFLKMNSLTAADTAMYFCVRKGGIYFDYWGQGVLVTVSS VL: DTVLTQSPSLAVSPGERATISCRASESVSTLMHWYQQKPGQQPKLLIYLASHRESGVPARFSGSGSGTDFTLTIDPMEAEDTATYYCQQSRNDPWTFGQGTKLELKR	1.12
huML66-SPDB-DM4 conjugate (antibody, human IgG1, kappa, V domains shown, DM4 linked through SPDB; sites not stated; DM4 linked through SPDB; 3.5-4 DM4 molecules per antibody; sites not stated) VH: QVQLQESGPGLVKPSETLSLTCTVSGLSLASNSVSWIRQPPGKGLEWMGVIWNHGGTDYNPSIKSRLSISRDTSKSQVFLKMNSLTAADTAMYFCVRKGGIYFDYWGQGVLVTVSS VL: DTVLTQSPSLAVSPGERATISCRASESVSTLMHWYQQKPGQQPKLLIYLASHRESGVPARFSGSGSGTDFTLTIDPMEAEDTATYYCQQSRNDPWTFGQGTKLELKR	2.93
huML66-SMCC-DM1 conjugate (antibody, human IgG1, kappa, V domains shown, DM1 linked through SMCC; sites not stated; DM1 linked through SMCC; 3.5-4 DM1 molecules per antibody; sites not stated) VH: QVQLQESGPGLVKPSETLSLTCTVSGLSLASNSVSWIRQPPGKGLEWMGVIWNHGGTDYNPSIKSRLSISRDTSKSQVFLKMNSLTAADTAMYFCVRKGGIYFDYWGQGVLVTVSS VL: DTVLTQSPSLAVSPGERATISCRASESVSTLMHWYQQKPGQQPKLLIYLASHRESGVPARFSGSGSGTDFTLTIDPMEAEDTATYYCQQSRNDPWTFGQGTKLELKR	2.33
murine EGFR-8 antibody (antibody, V domains shown, Mouse monoclonal antibody purified from hybridoma; also called muEGFR-8) VH: EVQLQQSGAELVKPGASVKLSCTTSGFNIKDTYIHWVKKRPEQGLEWIGRIDPTNGNNKYDPKFQGKATITADTSSNTAYLQLSSLTSEDTAVYYCTREDGYRYDDWYFDVWGAGTTVTVSS VL: QIVLTQSPASMSASPGEKVTMTCSASSSVSYMHWYQQKSGTSPKRWIYATSKLASGVPARFSGSGSGTSYSLTISSMEAEDAATYYCQQWSSNPLTFGAGTKLELKR	1.43

Lab note: next binder to report on.
Request: Give the measured Kd of muEGFR-8-SMCC-DM1 conjugate (antibody, V domains shown, DM1 linked through SMCC to the antibody; drug load and sites not stated, Maytansinoid conjugate of the whole murine EGFR-8 antibody; its preparation is not described separately) VH: EVQLQQSGAELVKPGASVKLSCTTSGFNIKDTYIHWVKKRPEQGLEWIGRIDPTNGNNKYDPKFQGKATITADTSSNTAYLQLSSLTSEDTAVYYCTREDGYRYDDWYFDVWGAGTTVTVSS VL: QIVLTQSPASMSASPGEKVTMTCSASSSVSYMHWYQQKSGTSPKRWIYATSKLASGVPARFSGSGSGTSYSLTISSMEAEDAATYYCQQWSSNPLTFGAGTKLELKR .
Result: 4.54
